The entries below are paired with their reported Activity.
Test system: Enterococcus faecium
Assay: Inhibition of Enterococcus faecium D63r PBP5 assessed as assessed as residual activity at 1 mM after 4 hrs by fluorescence spectroscopy in presence of fluorescein-labeled ampicillin
// return numeric value only (unit: %, not printed)

Study these solved cases before continuing.
C=CCCCCC(=O)N[C@H]1CN(C(=O)CCCC)C1=O    5
CCCCCCC(=O)N[C@H]1CN(C(=O)CCCCCCC(=O)N2C[C@H](NC(=O)CCCCCC)C2=O)C1=O    10
CCCCCCC(=O)N[C@H]1CN(C(=O)CC/C=C/CCC(=O)N2C[C@H](NC(=O)CCCCCC)C2=O)C1=O    0
C=CCCCC(=O)N1C[C@H](NC(=O)CCC=C)C1=O    39
C=CCCCCC(=O)N1C[C@H](NC(=O)CCC=C)C1=O    50

(Q) Report Activity for C=CCCCCC(=O)N1C[C@H](NC(=O)CCCC=C)C1=O
(A) 15

(Q) Answer with the recorded Activity of C=CCCCC(=O)N[C@H]1CN(C(=O)CCCC=C)C1=O only.
(A) 17

(Q) Tell us which Activity value is on record for CCCCC(=O)N1C[C@H](NC(=O)CCCC/C=C/CCCCC(=O)N[C@H]2CN(C(=O)CCCC)C2=O)C1=O
(A) 5
